PROTOCOL SUMMARY: in vitro
EXPERIMENTAL CONDITIONS: dog, plasma
Starred links: 1 amine or outer side, 2 acyl side, 3 side chain; linkers in the order of their positions; H or OH if unused. Non-standard residues stand in square brackets, D forms with d. Residues, ends and D or L forms follow the SMILES beside them. ξ: configuration not given here. Oic = O=C(O)[C@@H]1C[C@@H]2CCCC[C@@H]2N1; GABOB(3R) = O=C(C[C@@H](O)CN[*:1])[*:2]; tBuAla = CC(C)(C)C[C@H](N)C(=O)O; ξVal(3-OH) = CC(C)(O)C(N)C(=O)O; 4Amb = NCc1ccc(C(=O)O)cc1
PROPERTY MEASURED: remaining at 2 h, 5 μM (%)
I only need the number, in %, no unit after it.

GET /values?readout=remaining at 2 h, 5 μM&item= CC(C)(C)C[C@@H]1NC(=O)C[C@@H](O)CNC(=O)[C@@H]2C[C@@H]3CCCC[C@@H]3N2C(=O)[C@H](CC(C)(C)C)NC(=O)c2ccc(cc2)CNC(=O)C(C(C)(C)O)NC(=O)[C@@H](Cc2ccccc2)NC1=O (stereo partly drawn) [compound 109] (cyclo([4Amb][tBuAla][Oic][GABOB(3R)][tBuAla][dF][ξVal(3-OH)]))
91.9

---

PROTOCOL SUMMARY: Stability of selected EB3 inhibitors in human blood plasma
Assay type: in vitro ADME
EXPERIMENTAL CONDITIONS: human plasma, 37 °C, 1.5 hr; perchloric acid (60%) precipitation, LC-MS/MS; read-out: compound remaining in human plasma
Starred links: 1 amine or outer side, 2 acyl side, 3 side chain; linkers in the order of their positions; H or OH if unused. Positions of bridges follow the written chain, without caps; N, C: chain ends. Non-standard residues stand in square brackets, D forms with d. Residues, ends and D or L forms follow the SMILES beside them. *: point of attachment. X2 = C[C@@](CCCCC=[*:3])(N[*:1])C(=O)[*:2]; Leu(4,5-dehydro) = C=C(C)C[C@H](N)C(=O)O; Oic = O=C(O)[C@@H]1C[C@@H]2CCCC[C@@H]2N1; d(tBuAla) = CC(C)(C)C[C@@H](N)C(=O)O; dVal(3-OH) = CC(C)(O)[C@@H](N)C(=O)O; tBuAla = CC(C)(C)C[C@H](N)C(=O)O; R5 = C=CCCC[C@@](C)(N)C(=O)O; S5 = C=CCCC[C@](C)(N)C(=O)O; X1 = O=C(CC(O)CN[*:1])[*:2]; 4Amb = NCc1ccc(C(=O)O)cc1; X3 = NCC(O)CC(=O)*
Would you mind telling me the reported remaining at 1.5 h of each entry?
Report only the number, with the unit % understood.

What value of remaining at 1.5 h has been reported for the following compound? C=C(C)C[C@@H]1NC(=O)[C@](C)(NC(=O)c2ccc(CNC(=O)CC(O)CN)cc2)CCC/C=C\CCC[C@@](C)(C(=O)N[C@H](CC(C)(C)C)C(=O)O)NC(=O)CC(O)CNC(=O)[C@@H]2C[C@@H]3CCCC[C@@H]3N2C1=O (some centres unmarked) [compound 107] ({X3-4Amb}-[R5][Leu(4,5-dehydro)][Oic][X1][S5][d(tBuAla)]-OH; staple (Z) 1-5)
87

Can you look up the measured remaining at 1.5 h of CC(C)(C)C[C@@H]1NC(=O)[C@](C)(NC(=O)c2ccc(CNC(=O)[C@H](N)C(C)(C)O)cc2)CCC/C=C\CCCC[C@@](C)(C(=O)N[C@H](CC(C)(C)C)C(=O)O)NC(=O)CC(O)CNC(=O)[C@@H]2C[C@@H]3CCCC[C@@H]3N2C1=O (some centres unmarked) [compound 108] (H-[dVal(3-OH)][4Amb][R5][tBuAla][Oic][X1][X2][d(tBuAla)]-OH; staple (Z) 3-7) for me?
80
